# experimental target: human 5-HT1A receptor (Homo sapiens)
# Construct: expressed in transfected cells; host or cells: CHO cells (human 5-HT1A/CHO), membrane preparation
# protocol: 5-HT1A receptor stimulation test, [^35S]GTPγS binding (Test Example 3)
# Type: biochemical
# assay context: 10^-5 M test substance; membranes of human 5-HT1A/CHO cells; increase in [^35S]GTPγS binding caused by 10 μM 5-HT taken as 100%
1 (yes) if 5-HT1A receptor stimulating activity (%) is below 50%. 0 (no) if not; exact matches included in 0 (no).

Consider the worked cases shown below.
>  <compound>
CCN([C@H]1CC[C@H](CCCN2CCC(Cc3cc(OC(C)C)ccc3Br)CC2)CC1)S(C)(=O)=O.Cl

>  <discrete label>
0 (no)

$$$$
>  <compound>
COc1ccc(Br)c(CC2CCN(CC3CNc4ccccc4C3)CC2)c1.Cl.Cl (centres unmarked)

>  <discrete label>
1 (yes)

$$$$
>  <compound>
COc1ccc(Br)c(CC2CCN(CC[C@H]3CC[C@@H](CCO)CC3)CC2)c1.Cl

>  <discrete label>
1 (yes)

$$$$

[in] Item CCN[C@H]1CC[C@H](CCN2CCC(Cc3cc(OC)ccc3Br)CC2)CC1.Cl.Cl : 5-HT1A receptor stimulating activity (%) beneath 50%, strictly?
[out] 1 (yes)

[in] Item COc1ccc(Br)c(CC2CCN(CC[C@H]3CC[C@H](NC(=O)C(F)(F)F)CC3)CC2)c1.Cl : 5-HT1A receptor stimulating activity (%) beneath 50%, strictly?
[out] 1 (yes)

====

Each entry below lists one item and its recorded Rate of inhibition of [^3H]paroxetine binding (%) value.
# experimental target: [^3H]paroxetine binding (serotonin reuptake), cerebral cortex membrane preparation (Rattus norvegicus, UniProt P31652)
# Construct: 790 μl of the cerebral cortex membrane preparation (150 μg/tube in terms of protein); from tissue; host or cells: rat cerebral cortex membrane preparation
# Sequence (P31652 whole entry): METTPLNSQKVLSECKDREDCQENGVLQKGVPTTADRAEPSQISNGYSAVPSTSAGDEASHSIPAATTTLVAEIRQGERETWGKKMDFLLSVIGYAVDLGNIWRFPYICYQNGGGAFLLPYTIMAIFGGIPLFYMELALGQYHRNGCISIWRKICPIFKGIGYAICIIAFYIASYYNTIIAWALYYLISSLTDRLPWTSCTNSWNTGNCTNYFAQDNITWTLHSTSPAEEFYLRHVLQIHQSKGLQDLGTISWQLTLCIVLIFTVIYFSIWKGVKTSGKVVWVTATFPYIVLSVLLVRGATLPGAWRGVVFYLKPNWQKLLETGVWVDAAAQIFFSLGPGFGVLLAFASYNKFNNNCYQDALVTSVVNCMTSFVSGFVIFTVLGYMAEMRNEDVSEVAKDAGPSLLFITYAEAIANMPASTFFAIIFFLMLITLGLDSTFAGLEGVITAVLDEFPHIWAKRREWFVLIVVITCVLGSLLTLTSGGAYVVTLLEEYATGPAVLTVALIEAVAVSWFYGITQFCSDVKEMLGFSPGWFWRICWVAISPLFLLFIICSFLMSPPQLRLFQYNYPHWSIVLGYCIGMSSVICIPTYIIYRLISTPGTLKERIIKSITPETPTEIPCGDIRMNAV
# protocol: Screening test using [^3H]paroxetine binding (Test Example 1)
# assay context: [^3H]paroxetine 0.15 nM, test concentration not given
Numbers only here, please. The scale is %.

Check out these entries, answers already filled in.
>  <molecule>
CCN[C@H]1CC[C@H](CCN2CCC(Cc3cc(OC)ccc3Br)CC2)CC1.Cl.Cl [Example 38]

>  <value>
100

$$$$
>  <molecule>
CCN(CC)[C@H]1CC[C@@H](CCCN2CCC(Cc3cc(OC)ccc3Br)CC2)CC1.Cl.Cl [Example 54]

>  <value>
80

$$$$
>  <molecule>
CC(C)Oc1ccc(Br)c(CC2CCN(CC3CCc4ccccc4N3)CC2)c1.Cl.Cl (stereo not shown) [Example 65]

>  <value>
97

$$$$

Query molecule follows.
[in] Item under review: COc1ccc(Br)c(CC2CCN(CC[C@H]3CC[C@H](NS(=O)(=O)N(C)C)CC3)CC2)c1.Cl [Example 47] . Reported Rate of inhibition of [^3H]paroxetine binding (%)?
[out] 100

====

# experimental target: serotonin 1A receptors ([^3H]8-OH-DPAT binding, hippocampus membrane preparation) (Rattus norvegicus, UniProt P19327)
# Construct: 146 μl of the hippocampus membrane preparation (80 μg/tube in terms of protein); from tissue; host or cells: rat hippocampus membrane preparation
# Sequence (P19327 whole entry): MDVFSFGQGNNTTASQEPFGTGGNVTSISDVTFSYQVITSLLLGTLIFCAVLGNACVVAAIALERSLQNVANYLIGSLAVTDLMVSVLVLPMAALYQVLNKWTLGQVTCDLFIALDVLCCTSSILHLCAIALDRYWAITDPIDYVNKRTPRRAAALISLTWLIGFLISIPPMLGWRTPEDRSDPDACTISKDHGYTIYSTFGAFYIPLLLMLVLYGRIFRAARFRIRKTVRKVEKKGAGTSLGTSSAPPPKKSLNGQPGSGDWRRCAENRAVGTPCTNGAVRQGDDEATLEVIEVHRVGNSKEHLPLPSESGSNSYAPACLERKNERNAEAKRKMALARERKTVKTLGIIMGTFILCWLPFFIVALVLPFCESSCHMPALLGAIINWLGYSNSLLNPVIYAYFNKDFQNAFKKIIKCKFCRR
# protocol: [^3H]8-OH-DPAT binding test (Test Example 2)
# assay context: [^3H]8-OH-DPAT 2 nM, test concentration not given
Each entry below lists one item and its recorded Rate of inhibition of [^3H]8-OH-DPAT binding (%) value.
Numbers only here, please. The scale is %.

Check out these entries, answers already filled in.
>  <compound>
COc1ccc(Br)c(CC2CCN(CCC3CCN(CCO)CC3)CC2)c1.Cl.Cl [Example 6]

>  <value>
71

$$$$
>  <compound>
Cl.Cl.Clc1ccc(Br)c(CC2CCN(CC3CCc4ccccc4N3)CC2)c1 (centres unmarked) [Example 67]

>  <value>
73

$$$$

[in] Item under review: COc1ccc(Br)c(CC2CCN(CC3CNc4ccccc4C3)CC2)c1.Cl.Cl (centres unmarked) [Example 70] . Reported Rate of inhibition of [^3H]8-OH-DPAT binding (%)?
[out] 86

[in] Item under review: COc1ccc(Br)c(CC2CCN(CCC3(CCO)CCCCC3)CC2)c1.Cl [Example 60] . Reported Rate of inhibition of [^3H]8-OH-DPAT binding (%)?
[out] 98

[in] Item under review: COc1ccc(Br)c(CC2CCN(CC[C@H]3CC[C@@H](CCO)CC3)CC2)c1.Cl [Example 64] . Reported Rate of inhibition of [^3H]8-OH-DPAT binding (%)?
[out] 96

[in] Item under review: CCN([C@H]1CC[C@H](CCCN2CCC(Cc3cc(OC(C)C)ccc3Br)CC2)CC1)S(C)(=O)=O.Cl [Example 46] . Reported Rate of inhibition of [^3H]8-OH-DPAT binding (%)?
[out] 65

[in] Item under review: COc1ccc(Br)c(CC2CCN(CC3CCc4ccccc4N3)CC2)c1.Cl.Cl (centres unmarked) [Example 69] . Reported Rate of inhibition of [^3H]8-OH-DPAT binding (%)?
[out] 96

[in] Item under review: CCN(C(C)=O)[C@H]1CC[C@H](CCN2CCC(Cc3cc(OC(C)C)ccc3Br)CC2)CC1.Cl [Example 52] . Reported Rate of inhibition of [^3H]8-OH-DPAT binding (%)?
[out] 60

====

Each entry below lists one item and its recorded melting point value.

Check out these entries, answers already filled in.
>  <compound>
CO[C@H]1CC[C@@H](CCCN2CCC(Cc3cc(OC(C)C)ccc3Br)CC2)CC1.Cl

>  <melting point>
134 °C

$$$$
>  <compound>
COc1ccc(Br)c(CC2CCN(CCC3(CCO)CCCC3)CC2)c1.Cl

>  <melting point>
184 °C

$$$$
>  <compound>
COc1ccc(Br)c(CC2CCN(CC[C@H]3CC[C@@H](CCO)CC3)CC2)c1.Cl [Example 63]

>  <melting point>
172 °C

$$$$

[in] Item under review: CCOc1ccc(Br)c(CC2CCN(CC3CCc4ccccc4N3)CC2)c1.Cl.Cl (centres unmarked) . Reported melting point?
[out] 228 °C

[in] Item under review: CCN[C@H]1CC[C@@H](CCN2CCC(Cc3cc(OC(C)C)ccc3Br)CC2)CC1.Cl.Cl . Reported melting point?
[out] 247 °C

[in] Item under review: COc1ccc(Br)c(CC2CCN(CCC[C@H]3CC[C@@H](N)CC3)CC2)c1.Cl.Cl . Reported melting point?
[out] 238 °C

[in] Item under review: CCN[C@H]1CC[C@H](CCN2CCC(Cc3cc(OC(C)C)ccc3Br)CC2)CC1.Cl.Cl . Reported melting point?
[out] 290 °C

[in] Item under review: CO[C@H]1CC[C@H](CCN2CCC(Cc3cc(OC(C)C)ccc3Br)CC2)CC1.Cl . Reported melting point?
[out] 196 °C

====

# experimental target: human 5-HT1A receptor (Homo sapiens, UniProt P08908)
# Construct: expressed in transfected cells; host or cells: CHO cells (human 5-HT1A/CHO), membrane preparation
# Sequence (P08908 whole entry): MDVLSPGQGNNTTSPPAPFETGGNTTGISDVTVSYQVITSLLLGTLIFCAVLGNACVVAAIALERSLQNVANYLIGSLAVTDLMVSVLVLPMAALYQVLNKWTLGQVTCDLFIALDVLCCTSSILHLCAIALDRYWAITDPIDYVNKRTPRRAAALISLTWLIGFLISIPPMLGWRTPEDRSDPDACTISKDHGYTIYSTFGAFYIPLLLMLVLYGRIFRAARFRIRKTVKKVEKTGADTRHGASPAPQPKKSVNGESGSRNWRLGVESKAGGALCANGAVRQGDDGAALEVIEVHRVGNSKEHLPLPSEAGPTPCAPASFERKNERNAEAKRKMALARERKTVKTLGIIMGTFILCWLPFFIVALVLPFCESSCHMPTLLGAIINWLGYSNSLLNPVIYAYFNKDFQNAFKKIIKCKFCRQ
# protocol: 5-HT1A receptor stimulation test, [^35S]GTPγS binding (Test Example 3)
# Type: biochemical
# assay context: 10^-5 M test substance; membranes of human 5-HT1A/CHO cells; increase in [^35S]GTPγS binding caused by 10 μM 5-HT taken as 100%
Each entry below lists one item and its recorded 5-HT1A receptor stimulating activity (%) value.
Please answer in the form of a number followed by its unit of measurement.

[in] Item under review: CCN(CCOC)[C@H]1CC[C@H](CCN2CCC(Cc3cc(OC)ccc3Br)CC2)CC1.Cl.Cl . Reported 5-HT1A receptor stimulating activity (%)?
[out] 30%

[in] Item under review: COc1ccc(Br)c(CC2CCN(CCC3CCN(CCO)CC3)CC2)c1.Cl.Cl . Reported 5-HT1A receptor stimulating activity (%)?
[out] 53%

[in] Item under review: CO[C@H]1CC[C@H](CCN2CCC(Cc3cc(OC(C)C)ccc3Br)CC2)CC1.Cl . Reported 5-HT1A receptor stimulating activity (%)?
[out] 51%

[in] Item under review: COc1ccc(Br)c(CC2CCN(CC3CCc4ccccc4N3)CC2)c1.Cl.Cl (centres unmarked) . Reported 5-HT1A receptor stimulating activity (%)?
[out] 63%

[in] Item under review: CC(C)Oc1ccc(Br)c(CC2CCN(CC3CCc4ccccc4N3)CC2)c1.Cl.Cl (centres unmarked) . Reported 5-HT1A receptor stimulating activity (%)?
[out] 64%

====

# experimental target: [^3H]paroxetine binding (serotonin reuptake), cerebral cortex membrane preparation (Rattus norvegicus)
# Construct: 790 μl of the cerebral cortex membrane preparation (150 μg/tube in terms of protein); from tissue; host or cells: rat cerebral cortex membrane preparation
# protocol: Screening test using [^3H]paroxetine binding (Test Example 1)
# assay context: [^3H]paroxetine 0.15 nM, test concentration not given
Assign y to entries whose Rate of inhibition of [^3H]paroxetine binding (%) meets or exceeds 90%; assign n to the rest.

>  <compound>
CO[C@H]1CC[C@H](CCN2CCC(Cc3cc(OC(C)C)ccc3Br)CC2)CC1.Cl

>  <discrete label>
y

$$$$
>  <compound>
CCNC(=O)N1CCC(CCN2CCC(Cc3cc(OC)ccc3Br)CC2)CC1.Cl

>  <discrete label>
y

$$$$

[in] Exam item: decide whether the reported Rate of inhibition of [^3H]paroxetine binding (%) for COc1ccc(Br)c(CC2CCN(CC[C@H]3CC[C@@H](CCO)CC3)CC2)c1.Cl is at least 90%.
[out] y

[in] Exam item: decide whether the reported Rate of inhibition of [^3H]paroxetine binding (%) for Cl.Cl.Clc1ccc(Br)c(CC2CCN(CC3CCc4ccccc4N3)CC2)c1 (centres unmarked) is at least 90%.
[out] n

[in] Exam item: decide whether the reported Rate of inhibition of [^3H]paroxetine binding (%) for COc1ccc(Br)c(CC2CCN(CCC3CCN(CCO)CC3)CC2)c1.Cl.Cl is at least 90%.
[out] n

[in] Exam item: decide whether the reported Rate of inhibition of [^3H]paroxetine binding (%) for COc1ccc(Br)c(CC2CCN(CC3CCc4ccccc4N3)CC2)c1.Cl.Cl (centres unmarked) is at least 90%.
[out] y

[in] Exam item: decide whether the reported Rate of inhibition of [^3H]paroxetine binding (%) for CCN[C@H]1CC[C@@H](CCN2CCC(Cc3cc(OC(C)C)ccc3Br)CC2)CC1.Cl.Cl is at least 90%.
[out] n
